# System: E. coli W3110
# Protocol Conditions: Table S2; […] MH, pH 8.5
Where a SMILES comes first, the peptide text is derived from it. [ ]: non-standard residue; d: D form. Nleu = CC(C)CNCC(=O)O; Nlys = NCCCCNCC(=O)O
Measured Quantity: MIC E. coli W3110 […] 8.5

Request: # get_value(readout='MIC E. coli W3110 […] 8.5', item= CC(C)C[C@H](NC(=O)[C@H](CCCCN)NC(=O)[C@@H](N)CCCCN)C(=O)N[C@@H](CC(C)C)C(=O)N[C@@H](CCCCN)C(=O)N(CC(=O)N(CC(=O)N(CCCCN)CC(=O)N(CC(=O)N(CC(=O)N(CC(N)=O)CC(C)C)CC(C)C)CC(C)C)CC(C)C)CC(C)C [EB4, KKLLKllklll] (H-KKLLK[Nleu][Nleu][Nlys][Nleu][Nleu][Nleu]-NH2) )
Result: 2 µg/mL

Request: # get_value(readout='MIC E. coli W3110 […] 8.5', item= CC(C)C[C@H](NC(=O)[C@H](CC(C)C)NC(=O)[C@H](CC(C)C)NC(=O)[C@@H](CCCCN)NC(=O)[C@H](CC(C)C)NC(=O)[C@H](CC(C)C)NC(=O)[C@@H](CCCCN)NC(=O)[C@H](CC(C)C)NC(=O)[C@H](CC(C)C)NC(=O)[C@@H](CCCCN)NC(=O)[C@H](N)CCCCN)C(N)=O [ln69, kkLLkLLkLLL, reference compound] (H-[dK][dK]LL[dK]LL[dK]LLL-NH2) )
Result: 2 µg/mL

Request: # get_value(readout='MIC E. coli W3110 […] 8.5', item= CC(C)C[C@H](NC(=O)CN(CCCCN)C(=O)[C@H](CC(C)C)NC(=O)[C@H](CC(C)C)NC(=O)[C@H](CCCCN)NC(=O)[C@H](CC(C)C)NC(=O)[C@H](CC(C)C)NC(=O)[C@H](CCCCN)NC(=O)CNCCCCN)C(=O)N[C@@H](CC(C)C)C(=O)N(CC(N)=O)CC(C)C [EB2, kKLLKLLkLLl] (H-[Nlys]KLLKLL[Nlys]LL[Nleu]-NH2) )
Result: 2 µg/mL

Request: # get_value(readout='MIC E. coli W3110 […] 8.5', item= CC(C)CN(CC(N)=O)C(=O)CN(CC(C)C)C(=O)CN(CC(C)C)C(=O)CN(CCCCN)C(=O)CN(CC(C)C)C(=O)CN(CC(C)C)C(=O)CN(CCCCN)C(=O)CN(CC(C)C)C(=O)CN(CC(C)C)C(=O)CN(CCCCN)C(=O)CNCCCCN [EB11, kkllkllklll] (H-[Nlys][Nlys][Nleu][Nleu][Nlys][Nleu][Nleu][Nlys][Nleu][Nleu][Nleu]-NH2) )
Result: 2 to 4 µg/mL

====

What pIC50 was measured for each of the following?
# Tested on: HEK293 cells
# Procedure Summary: Cell viability assay by Alamar blue
# Protocol Conditions: read-out: Toxicity on HEK293 cells; CSV
# Procedure: The data are represented as the mean value ± SD, n = 3. […] (c) Vesicle leakage assay for a selection of compounds. Lipid vesicles made of EYPG or EYPC were suspended in a buffer (10 mM TRIS, 107 mM NaCl, pH 7.4). After 45 s, the indicated compound was added to reach the desired concentration. After 240 s, 30 μL of 1.2% TritonX-100 was added for full fluorescein release. […] See Supporting Information for the full curves, all of the data, and procedures. […]
pIC50: −log10 of the molar value. Where a SMILES comes first, the peptide text is derived from it. [ ]: non-standard residue; d: D form. Nleu = CC(C)CNCC(=O)O; Nlys = NCCCCNCC(=O)O

Request: # get_value(readout='pIC50', item= CC(C)CN(CC(N)=O)C(=O)CN(CC(C)C)C(=O)CN(CC(C)C)C(=O)CN(CCCCN)C(=O)CN(CC(C)C)C(=O)CN(CC(C)C)C(=O)CN(CCCCN)C(=O)CN(CC(C)C)C(=O)CN(CC(C)C)C(=O)CN(CCCCN)C(=O)CNCCCCN [EB11, kkllkllklll] (H-[Nlys][Nlys][Nleu][Nleu][Nlys][Nleu][Nleu][Nlys][Nleu][Nleu][Nleu]-NH2) )
Result: < 3.70

Request: # get_value(readout='pIC50', item= CC(C)C[C@H](NC(=O)CN(CC(C)C)C(=O)[C@H](CC(C)C)NC(=O)CN(CCCCN)C(=O)[C@H](CC(C)C)NC(=O)CN(CC(C)C)C(=O)[C@H](CCCCN)NC(=O)CN(CC(C)C)C(=O)[C@H](CC(C)C)NC(=O)CN(CCCCN)C(=O)[C@@H](N)CCCCN)C(N)=O [EB9, KkLlKlLkLlL] (H-K[Nlys]L[Nleu]K[Nleu]L[Nlys]L[Nleu]L-NH2) )
Result: < 3.70

Request: # get_value(readout='pIC50', item= CC(C)C[C@H](NC(=O)[C@H](CCCCN)NC(=O)CNCCCCN)C(=O)N[C@@H](CC(C)C)C(=O)N[C@@H](CCCCN)C(=O)N[C@@H](CC(C)C)C(=O)N[C@@H](CC(C)C)C(=O)N[C@@H](CCCCN)C(=O)N[C@@H](CC(C)C)C(=O)N[C@@H](CC(C)C)C(=O)N(CC(N)=O)CC(C)C [EB1] (H-[Nlys]KLLKLLKLL[Nleu]-NH2; N-terminus assumed) )
Result: 3.96
